tested on: Sigma non-opioid intracellular receptor 1 (Cavia porcellus, UniProt Q60492)
Sequence (Q60492 whole entry): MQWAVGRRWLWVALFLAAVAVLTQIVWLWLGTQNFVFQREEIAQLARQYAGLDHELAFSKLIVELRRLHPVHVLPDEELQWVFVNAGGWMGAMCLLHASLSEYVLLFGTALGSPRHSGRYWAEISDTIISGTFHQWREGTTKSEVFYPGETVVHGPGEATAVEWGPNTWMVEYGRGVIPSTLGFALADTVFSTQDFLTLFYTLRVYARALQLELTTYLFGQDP
measurement notes: Displacement of [3H](+)-pentazocine from sigma 1 receptor in guinea pig brain membrane
Kindly supply the reported pKi values for the records listed here.
Just the number, please; pKi means minus log10 of the concentration in mol/L.

Ask: Entry `CCC[C@H]1OC2(CCN(Cc3ccccc3)CC2)c2ccccc21` : reported pKi = ?
Reply: 8.49

Ask: Entry `OCC[C@H]1Cc2ccccc2C2(CCN(CC3CCCCC3)CC2)O1` : reported pKi = ?
Reply: 8.00

Ask: Entry `OCC[C@H]1Cc2ccccc2C2(CCN(Cc3ccccc3)CC2)O1` : reported pKi = ?
Reply: 8.00

Ask: Entry `CO[C@H]1Cc2ccccc2C2(CCN(C)CC2)O1` : reported pKi = ?
Reply: 5.36

Ask: Entry `CO[C@H]1Cc2sc(-c3ccccc3)cc2C2(CCN(Cc3ccco3)CC2)O1` : reported pKi = ?
Reply: 8.66

Ask: Entry `CC(=O)C[C@@H]1Cc2sccc2C2(CCN(Cc3ccccc3)CC2)O1` : reported pKi = ?
Reply: 8.03

Ask: Entry `CO[C@H]1Cc2c(cnn2-c2ccccc2)C2(CCN(CC(C)C)CC2)O1` : reported pKi = ?
Reply: 8.20

Ask: Entry `CCCN1CCC2(CC1)O[C@@H](OC)Cc1c2cnn1C` : reported pKi = ?
Reply: 5.53

Ask: Entry CO[C@@H]1Cc2ccccc2[C@@]2(CCCN(Cc3ccccc3)C2)O1 (racemic) : reported pKi = ?
Reply: 5.76

Ask: Entry `O[C@H]1OC2(CCN(CCc3ccccc3)CC2)c2ccccc21` : reported pKi = ?
Reply: 6.96

Ask: Entry `CO[C@H]1Cc2sc(C(=O)c3ccccc3)cc2C2(CCN(Cc3ccccc3)CC2)O1` : reported pKi = ?
Reply: 8.43

Ask: Entry `CO[C@H]1Cc2ccccc2C2(CCN(CCCCc3ccccc3)CC2)O1` : reported pKi = ?
Reply: 8.00

Ask: Entry `Cn1ncc2c1CCOC21CCN(CCCc2ccccc2)CC1` : reported pKi = ?
Reply: 7.77

Ask: Entry `CC(C)=CCN1CCC2(CC1)OCCc1c2cnn1C` : reported pKi = ?
Reply: 7.85

Ask: Entry `CO[C@H]1CCc2ccccc2C2(CCN(Cc3ccccc3)CC2)O1` : reported pKi = ?
Reply: 8.59

Ask: Entry `CO[C@H]1Cc2sccc2C2(CCN(CCCCc3ccccc3)CC2)O1` : reported pKi = ?
Reply: 8.11

Ask: Entry `O[C@H]1Cc2ccccc2C2(CCN(CCc3ccccc3)CC2)O1` : reported pKi = ?
Reply: 7.36

Ask: Entry `CO[C@@H]1OC2(CCN(Cc3ccccc3)CC2)c2cnn(-c3ccccc3)c21` : reported pKi = ?
Reply: 9.31

Ask: Entry `CO[C@H]1Cc2sccc2C2(CCN(CCc3ccccc3)CC2)O1` : reported pKi = ?
Reply: 8.23

Ask: Entry `CCCN1CCC2(CC1)O[C@@H](OC)Cc1c2cnn1-c1ccccc1` : reported pKi = ?
Reply: 7.48

Ask: Entry `CO[C@H]1Cc2c(cnn2-c2ccccc2)C2(CCN(Cc3ccccc3)CC2)O1` : reported pKi = ?
Reply: 8.82

Ask: Entry `CO[C@H]1Cc2c(cnn2-c2ccccc2)C2(CCN(C(C)C)CC2)O1` : reported pKi = ?
Reply: 6.68

Ask: Entry CO[C@@H]1Cc2ccccc2[C@@]2(CCCN(CCc3ccccc3)C2)O1 (racemic) : reported pKi = ?
Reply: 6.33

Ask: Entry `OCC[C@@H]1Cc2ccccc2C2(CCN(CCCc3ccccc3)CC2)O1` : reported pKi = ?
Reply: 7.17

Ask: Entry `CC(=O)C[C@H]1Cc2sccc2C2(CCN(Cc3ccccc3)CC2)O1` : reported pKi = ?
Reply: 7.92

Ask: Entry `c1ccc(CCCN2CCC3(CC2)OCCc2c3cnn2-c2ccccc2)cc1` : reported pKi = ?
Reply: 9.09

Ask: Entry `OCC[C@@H]1Cc2ccccc2C2(CCN(Cc3ccccc3)CC2)O1` : reported pKi = ?
Reply: 7.32

Ask: Entry `CCOC(=O)C[C@H]1Cc2ccccc2C2(CCN(Cc3ccccc3)CC2)O1` : reported pKi = ?
Reply: 6.74

Ask: Entry `CO[C@H]1Cc2c(cnn2C)C2(CCN(Cc3ccccc3)CC2)O1` : reported pKi = ?
Reply: 7.68

Ask: Entry CCCCN1CCC[C@@]2(C1)O[C@H](OC)Cc1ccccc12 (racemic) : reported pKi = ?
Reply: 5.89

Ask: Entry `CCOC(=O)C[C@H]1OC2(CCN(Cc3ccccc3)CC2)c2ccccc21` : reported pKi = ?
Reply: 7.82

Ask: Entry `COC(=O)c1cc2c(s1)C[C@H](OC)OC21CCN(Cc2ccccc2)CC1` : reported pKi = ?
Reply: 7.96
